Target: cathepsin L (Homo sapiens (Human))
Sequence (P07711 114-333): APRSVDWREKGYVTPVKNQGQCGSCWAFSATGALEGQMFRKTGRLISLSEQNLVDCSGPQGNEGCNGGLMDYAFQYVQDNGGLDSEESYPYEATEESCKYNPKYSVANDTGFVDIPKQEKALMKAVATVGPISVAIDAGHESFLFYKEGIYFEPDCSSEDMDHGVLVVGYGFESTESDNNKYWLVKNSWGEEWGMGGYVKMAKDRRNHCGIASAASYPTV
Assay: Cathepsin L enzymatic assay
Type: biochemical
Details: read-out: Cathepsin L IC50
pIC50: −log10 of the molar value.
reported property: pIC50

Inquiry: For cathepsin L (Homo sapiens (Human)), give pIC50 of the listed compound: O=C(CN1C(=O)[C@@H](NC(=O)OCc2ccccc2)COc2ccccc21)N[C@@H](C[C@@H]1CCNC1=O)C(=O)COC(=O)c1c(Cl)cccc1Cl
Reply text: < 4.82

###

Biological target: SARS-CoV-2 Mpro (Severe acute respiratory syndrome coronavirus 2 (2019-nCoV) (SARS-CoV-2))
reported property: IC50
Mention the unit after the number when you answer.

Inquiry: For SARS-CoV-2 Mpro (Severe acute respiratory syndrome coronavirus 2 (2019-nCoV) (SARS-CoV-2)), give IC50 of the listed compound: COc1cccc2[nH]c(C(=O)N[C@@H](CC(C)C)C(=O)N[C@@H](C[C@@H]3CCNC3=O)C(=O)COC(=O)c3c(Cl)cccc3Cl)cc12 [AP-8-001, reference compound]
Reply text: 11 nM
